tested on: Bel-7402; experiment: MTT assay, Bel-7402 cells; assay type: cell-based, human; details: Homo sapiens, Bel-7402, 72 h incubation, read-out: Half maximal inhibitory concentration (IC50) values, Bel-7402
MEASUREMENT LABEL: IC50

Need IC50, item C=C(C)[C@@H]1CC[C@]2(C(=O)OCCCOC(=O)c3nccnc3C)CC[C@]3(C)[C@H](CC[C@@H]4[C@@]5(C)CCC(=O)C(C)(C)[C@@H]5CC[C@]43C)[C@@H]12 14.2 µM

And the next one, C=C(C)[C@@H]1CC[C@]2(C(=O)O)CC[C@]3(C)[C@H](CC[C@@H]4[C@@]5(C)CCC(=O)C(C)(C)[C@@H]5CC[C@]43C)[C@@H]12 ? > 30 µM

Now give it for C=C(C)[C@@H]1CC[C@]2(C(=O)OCCOC(=O)c3nccnc3C)CC[C@]3(C)[C@H](CC[C@@H]4[C@@]5(C)CCC(=O)C(C)(C)[C@@H]5CC[C@]43C)[C@@H]12 too. 10.1 µM

What do you have for C=C(C)[C@@H]1CC[C@]2(C(=O)OCCOC(=O)c3ccnnc3)CC[C@]3(C)[C@H](CC[C@@H]4[C@@]5(C)CCC(=O)C(C)(C)[C@@H]5CC[C@]43C)[C@@H]12 ? 24.8 µM

Can you check C=C(C)[C@@H]1CC[C@]2(C(=O)OCCCCOC(=O)c3nc(C)c(C)nc3C)CC[C@]3(C)[C@H](CC[C@@H]4[C@@]5(C)CCC(=O)C(C)(C)[C@@H]5CC[C@]43C)[C@@H]12 next? > 30 µM

----------
Provide the recorded IC50 for the entries that follow.
system: HepG2; assay: MTT assay, HepG2 cells; assay type: cell-based, human; settings: Homo sapiens, HepG2, 72 h incubation, read-out: Half maximal inhibitory concentration (IC50) values, HepG2

# input molecule: C=C(C)[C@@H]1CC[C@]2(C(=O)OCCCOC(=O)c3nccnc3C)CC[C@]3(C)[C@H](CC[C@@H]4[C@@]5(C)CCC(=O)C(C)(C)[C@@H]5CC[C@]43C)[C@@H]12 ; wanted: its IC50 13.2 µM

Now the molecule C=C(C)[C@@H]1CC[C@]2(C(=O)O)CC[C@]3(C)[C@H](CC[C@@H]4[C@@]5(C)CCC(=O)C(C)(C)[C@@H]5CC[C@]43C)[C@@H]12 > 30 µM

Same for C=C(C)[C@@H]1CC[C@]2(C(=O)OCCCCOC(=O)c3ccncn3)CC[C@]3(C)[C@H](CC[C@@H]4[C@@]5(C)CCC(=O)C(C)(C)[C@@H]5CC[C@]43C)[C@@H]12 30.2 µM

Likewise for C=C(C)[C@@H]1CC[C@]2(C(=O)OCCCCOC(=O)c3nccnc3C)CC[C@]3(C)[C@H](CC[C@@H]4[C@@]5(C)CCC(=O)C(C)(C)[C@@H]5CC[C@]43C)[C@@H]12 ? 21.8 µM

Same thing, different molecule: C=C(C)[C@@H]1CC[C@]2(C(=O)OCCCCOC(=O)c3nc(C)c(C)nc3C)CC[C@]3(C)[C@H](CC[C@@H]4[C@@]5(C)CCC(=O)C(C)(C)[C@@H]5CC[C@]43C)[C@@H]12 > 30 µM

----------
Answer each item with its documented IC50.
Tested on: Bel-7402
Assay: MTT assay, Bel-7402 cells
Assay type: cell-based, human
Conditions: Homo sapiens, Bel-7402, 72 h incubation, read-out: Half maximal inhibitory concentration (IC50) values, Bel-7402
Description: The human hepatocellular carcinoma cell line (HepG2), human hepatocellular carcinoma cell line (Bel-7402), human cervical cancer cell line (Hela), human breast adenocarcinoma cell line (MCF-7) and Madin-Darby canine kidney cell line (MDCK) were obtained from the Chinese Academy of Medical Sciences and Peking Union Medical College. […] The antitumor activity was assessed by MTT assay, as previously reported ([Fang et al., 2018]). […]
Number only, in µM; omit the unit.

What value of IC50 has been recorded for this entry: C=C(C)[C@@H]1CC[C@]2(C(=O)OCCCOC(=O)c3cnccn3)CC[C@]3(C)[C@H](CC[C@@H]4[C@@]5(C)CCC(=O)C(C)(C)[C@@H]5CC[C@]43C)[C@@H]12 6.09

Would you kindly repeat that for C=C(C)[C@@H]1CC[C@]2(C(=O)OCCOC(=O)c3cnc(C)cn3)CC[C@]3(C)[C@H](CC[C@@H]4[C@@]5(C)CCC(=O)C(C)(C)[C@@H]5CC[C@]43C)[C@@H]12 ? 3.65

Can you check C=C(C)[C@@H]1CC[C@]2(C(=O)OCc3cncc(C)n3)CC[C@]3(C)[C@H](CC[C@@H]4[C@@]5(C)CCC(=O)C(C)(C)[C@@H]5CC[C@]43C)[C@@H]12 next? 7.51

Would you kindly repeat that for C=C(C)[C@@H]1CC[C@]2(C(=O)OCc3nccnc3C)CC[C@]3(C)[C@H](CC[C@@H]4[C@@]5(C)CCC(=O)C(C)(C)[C@@H]5CC[C@]43C)[C@@H]12 ? 7.73

----------
tested on: HepG2; experiment: MTT assay, HepG2 cells; assay type: cell-based, human; conditions: Homo sapiens, HepG2, 72 h incubation, read-out: Half maximal inhibitory concentration (IC50) values, HepG2
MEASUREMENT LABEL: pIC50
On this scale, pIC50 is minus log10 of a concentration expressed in M (mol/L).

# query: pIC50 of entry C=C(C)[C@@H]1CC[C@]2(C(=O)OCCOC(=O)c3cnc(C)cn3)CC[C@]3(C)[C@H](CC[C@@H]4[C@@]5(C)CCC(=O)C(C)(C)[C@@H]5CC[C@]43C)[C@@H]12 5.13

And then C=C(C)[C@@H]1CC[C@]2(C(=O)OCCCOC(=O)c3nc(C)c(C)nc3C)CC[C@]3(C)[C@H](CC[C@@H]4[C@@]5(C)CCC(=O)C(C)(C)[C@@H]5CC[C@]43C)[C@@H]12 , what is it? 4.70

Try this compound too: C=C(C)[C@@H]1CC[C@]2(C(=O)OCc3cnc(C)cn3)CC[C@]3(C)[C@H](CC[C@@H]4[C@@]5(C)CCC(=O)C(C)(C)[C@@H]5CC[C@]43C)[C@@H]12 5.05

Then C=C(C)[C@@H]1CC[C@]2(C(=O)OCc3nccnc3C)CC[C@]3(C)[C@H](CC[C@@H]4[C@@]5(C)CCC(=O)C(C)(C)[C@@H]5CC[C@]43C)[C@@H]12 ? 4.96

# repeat for C=C(C)[C@@H]1CC[C@]2(C(=O)OCc3cnccn3)CC[C@]3(C)[C@H](CC[C@@H]4[C@@]5(C)CCC(=O)C(C)(C)[C@@H]5CC[C@]43C)[C@@H]12 4.87

Repeat with C=C(C)[C@@H]1CC[C@]2(C(=O)OCCCOC(=O)c3cnccn3)CC[C@]3(C)[C@H](CC[C@@H]4[C@@]5(C)CCC(=O)C(C)(C)[C@@H]5CC[C@]43C)[C@@H]12 5.32

Thanks! And C=C(C)[C@@H]1CC[C@]2(C(=O)OCc3cncc(C)n3)CC[C@]3(C)[C@H](CC[C@@H]4[C@@]5(C)CCC(=O)C(C)(C)[C@@H]5CC[C@]43C)[C@@H]12 ? 5.29

Now give it for C=C(C)[C@@H]1CC[C@]2(C(=O)OCCOC(=O)c3cnccn3)CC[C@]3(C)[C@H](CC[C@@H]4[C@@]5(C)CCC(=O)C(C)(C)[C@@H]5CC[C@]43C)[C@@H]12 too. 4.86

Subsequent entry: C=C(C)[C@@H]1CC[C@]2(C(=O)OCCOC(=O)c3nccnc3C)CC[C@]3(C)[C@H](CC[C@@H]4[C@@]5(C)CCC(=O)C(C)(C)[C@@H]5CC[C@]43C)[C@@H]12 4.87

Now try C=C(C)[C@@H]1CC[C@]2(C(=O)OCCCCOC(=O)c3cnc(C)cn3)CC[C@]3(C)[C@H](CC[C@@H]4[C@@]5(C)CCC(=O)C(C)(C)[C@@H]5CC[C@]43C)[C@@H]12 . 4.65

Likewise for C=C(C)[C@@H]1CC[C@]2(C(=O)OCCCCOC(=O)c3cnccn3)CC[C@]3(C)[C@H](CC[C@@H]4[C@@]5(C)CCC(=O)C(C)(C)[C@@H]5CC[C@]43C)[C@@H]12 ? 4.89

Moving on to the next compound: C=C(C)[C@@H]1CC[C@]2(C(=O)OCCCCOC(=O)c3ccnnc3)CC[C@]3(C)[C@H](CC[C@@H]4[C@@]5(C)CCC(=O)C(C)(C)[C@@H]5CC[C@]43C)[C@@H]12 4.53

Thanks! And C=C(C)[C@@H]1CC[C@]2(C(=O)OCCOC(=O)c3cncc(C)n3)CC[C@]3(C)[C@H](CC[C@@H]4[C@@]5(C)CCC(=O)C(C)(C)[C@@H]5CC[C@]43C)[C@@H]12 ? 5.14

Same question, C=C(C)[C@@H]1CC[C@]2(C(=O)OCCCOC(=O)c3cncc(C)n3)CC[C@]3(C)[C@H](CC[C@@H]4[C@@]5(C)CCC(=O)C(C)(C)[C@@H]5CC[C@]43C)[C@@H]12 this time 5.06

# credit: paper PMC9486541
